target entity: Cytochrome P450 2C19 (Homo sapiens)
measurement notes: qHTS Assay for Inhibitors and Substrates of Cytochrome P450 2C19 (AID 899); further: nearly all actives have a fitted effect of over 60% in size
setup conditions: recombinant CYP2C19, luciferin-H EGE luminescence; series mostly up to 57.1 µM
Results filed as inconclusive are left out. Calls of active or inactive are those of the source. The call rests on the fitted dose curve; in most records, active means well fitted inhibition curve with a large enough effect; inconclusive means small, poorly fitted or top-dose-only effect; inactive means no such curve, though single readings can be large or run the other way.
Outcome (select one): yes for active, no for inactive

A selection of reference data follows.
CCCC[C@@H]1C[C@H]1C(NC(=O)c1ccccc1)c1ccccc1C(F)(F)F (some centres not stated)	yes
C[C@@H](C(=O)Nc1ccc2ccccc2c1)[C@@H]1C[C@@]1(C)[C@@H](NC(=O)OCc1ccccc1)c1ccccc1	yes
NCCC[C@@H](CC(=O)N[C@@H]1CCCC[C@H]1C(=O)N[C@H](CC(=O)N[C@@H](CCC(=O)O)CC(=O)O)Cc1c[nH]c2ccccc12)NC(=O)C[C@H](CO)NC(=O)[C@@H]1CNCC[C@H]1N	no

Query: Fill in: this test's call for FC(F)(F)c1ccccc1-c1nc(Nc2ccncc2)c2ccccc2n1 is ___
Reply: yes

Query: Field: outcome | Entry: CCC/C=C(\CCC)C(NS(=O)(=O)c1ccc(C(F)(F)F)cc1)c1ccc(-c2ccccc2)cc1 (configuration not stated)
Reply: yes

Query: What was the test verdict on CC(C)[C@@H](CC(=O)N[C@@H]1CCNC[C@H]1C(=O)N[C@H](CC(=O)N[C@@H](CCC(=O)O)CC(=O)O)Cc1c[nH]c2ccccc12)NC(=O)C[C@H](Cc1ccccc1)NC(=O)[C@@H]1CNCC[C@H]1N ?
Reply: no

Query: Tell me the recorded outcome of this test for CC(C)(C)c1cc(Br)c(O)c(CN(Cc2cc(C(C)(C)C)cc(Br)c2O)C2CCCCC2)c1 .
Reply: yes
